Assay: Stat Signaling Pathway (AID 446);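 further: ME-180 cervical cancer cells given 40 pM IL-6 alongside compound; SIE-controlled beta-lactamase reporter measured as 460/530 nm FRET emission ratio; on the % scale 0 is the no-effect control and ±100 the full control effect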
Conditions: ME-180 SIE beta-lactamase reporter, IL-6 stimulated, 5 h; at 7.69 µM (top of the series) unless noted
Results filed as inconclusive are left out. Active and inactive are the calls of the source. The call rests on the fitted dose curve; in most records, active means well fitted curve in either direction with a large enough effect (not every such curve was filed as active); inconclusive means small, poorly fitted or top-dose-only effect, or another doubt; inactive means flat fitted curve, though single readings scatter.
METRIC: activity, negative = inhibition

Qu. For the compound CC(CC(=O)O)(CC(=O)O)C(=O)O , what activity, negative = inhibition is on record?
Ans. 9.05% (inactive)

Qu. Input CC(C)[C@H](Sc1nc(N)nc2nc[nH]c12)C(=O)O
Ans. 14.2% (inactive)

Qu. What do you have for CN=C(N)/N=C(\N)Nc1cc2ccccc2c2ccccc12 ?
Ans. 12.7% (inactive)

Qu. Now the same for Nc1ccccc1CCCC(=O)O
Ans. 4.31% (inactive)

Qu. Can you check C[C@@H]1c2ccccc2Cn2cc3c(c21)C(=O)c1cccc(OP(=O)(O)OCc2ccccc2)c1C3=O next?
Ans. -19.6% (inactive)

Qu. C[N+](C)(C)c1cc2c(nn1)Nc1ccccc1S2 , same question.
Ans. 19.9% (inactive)

Qu. Try the compound C[N+]1(C)CCc2cc(O)c(O)cc2[C@H]1Cc1ccc(O)c(O)c1
Ans. 6.76% (inactive)

Qu. Now consider C[C@H]1[C@H](O)[C@@H](C)C=CC=CC=CC=CC=CC=CC=C[C@H](O[C@@H]2O[C@@H](C)[C@H](O)[C@@H](N)[C@@H]2O)C[C@@H]2O[C@](O)(C[C@@H](O)C[C@@H](O)[C@@H](O)CC[C@@H](O)C[C@@H](O)CC(=O)O[C@H]1C)C[C@H](O)[C@H]2C(=O)O .
Ans. 6.85% (inactive)

Qu. One more compound: OC[C@@H]1NC[C@@H](O)[C@H]1O
Ans. -5.61% [at 38 µM] (inactive)

---

Assay: Cell Viability - SH-SY5Y (AID 544);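 further: cells exposed to compound for 40 hours; 0% = DMSO alone and -100% = 100 µM tamoxifen; nearly all actives have a fitted effect of over 55% in size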
Details: SH-SY5Y neuroblastoma cell viability; at 92.2 µM (top of the series)
Records with an inconclusive call do not appear.
Kindly supply the reported viability change, negative = cytotoxic values for the records listed here.
Field: numeric (%). Do not append units.

Qu. Given the molecule Oc1cc2c(cc1O)[C@H]1c3ccc(O)c(O)c3OC[C@@]1(O)C2 , what is its reported viability change, negative = cytotoxic?
Ans. -82.8

Qu. Next record, please: CCCCCCCC/C=C\CCCCCCCC(=O)N(CCO)CCO
Ans. -99.3

Qu. Let us now turn to CCN(CC)c1ccc(N)cc1
Ans. -88.7

Qu. And for CC(/C=C/C=C(C)/C=C/C(=O)O)=C\C=C\C=C(C)\C=C\C=C(C)\C=C\C(=O)O ?
Ans. -97

Qu. Try this molecule too: O=c1[nH]ncc2ccccc12
Ans. -82.8

---

I'd be grateful if you could share measured activity, negative = inhibition for these entries.
Test: Stat Signaling Pathway (AID 446);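 further: ME-180 cervical cancer cells given 40 pM IL-6 alongside compound; SIE-controlled beta-lactamase reporter measured as 460/530 nm FRET emission ratio; on the % scale 0 is the no-effect control and ±100 the full control effect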
Conditions: ME-180 (cervical carcinoma) SIE beta-lactamase reporter, IL-6 stimulated, 5 h; at 7.69 µM (top of the series) unless noted
Inconclusive results are not listed. Calls of active or inactive are those of the source. Calls come from the whole dose curve; as a rule, active = well fitted curve in either direction with a large enough effect (not every such curve was filed as active); inconclusive = small, poorly fitted or top-dose-only effect, or another doubt; inactive = flat fitted curve, though single readings scatter.

Qu. Endpoint output: activity, negative = inhibition of Nc1ncnc2c1ncn2C[C@@H](O)C(=O)O . Value?
Ans. -0.0646% (inactive)

Qu. Another compound to check: O=C1c2ccccc2C(=O)c2c(Nc3ccc4c5c(cccc35)C(=O)c3ccccc3-4)cccc21
Ans. 0.0671% (inactive)

Qu. Would you kindly repeat that for Nc1cccc2cc(S(=O)(=O)Nc3ccc(C(=O)O)cc3)ccc12 ?
Ans. -1.24% (inactive)

Qu. Likewise for O=C(CCCc1ccccn1)c1ccccc1 ?
Ans. 2.46% (inactive)

Qu. Can you handle Clc1ccc2c(c1)N(CCCN1CCCC13CCCCC3)c1ccccc1S2 next?
Ans. 11.1% (inactive)

Qu. What about O=[N+]([O-])c1ccc(Cl)c(CNc2ncnc3c2ncn3[C@@H]2CCCCO2)c1 ?
Ans. 1.26% (inactive)

Qu. // repeat for Nc1ncnc2c1nc(-c1ccccc1)n2[C@H]1O[C@@H](CO)[C@@H](O)[C@H]1O and report
Ans. 1.65% (inactive)

Qu. Subsequent entry: COCCn1c(=O)c(-c2ccc(OC)cc2)nc2cnc(Oc3ccccc3)nc21
Ans. 16.5% (inactive)

Qu. Subsequent entry: C[C@]12CCC3c4ccc(OCC(=O)O)cc4CCC3C1CCC2=O (some centres not stated)
Ans. 9.48% (inactive)

Qu. Another compound to look at: N.N.N.N.N.N.N.N.N.N.N.N.N.N.O.O.[Ru].[Ru].[Ru]
Ans. -27% [at 38 µM] (inactive)

Qu. Also, Nc1cccc2nsnc12 please.
Ans. 2.62% (inactive)

Qu. Nc1ccccc1S[C@@H](C[N+](=O)[O-])c1ccc2c(c1)OCO2 ?
Ans. -19.6% (inactive)

Qu. Okay, and C[C@H](CN(C)C)C(=O)c1ccccc1C(=O)O ?
Ans. 14.8% (inactive)

Qu. How about C/C(=C\c1ccc(Cl)cc1)C(C)(C)C(=O)O ?
Ans. -7.44% (inactive)

Qu. Can you check O=S(=O)(O)c1cc(S(=O)(=O)O)c2c(N=Nc3cccc4ccccc34)c(O)ccc2c1 next?
Ans. 5.07% (inactive)

Qu. Repeat with CN(Cc1cccc2ccccc12)Cc1cccc2ccccc12
Ans. -2.17% (inactive)

Qu. Would you mind doing C/C(=N/NC1=NCCN1)c1cn(C2=NCCN2)nc1C as well?
Ans. 1.37% (inactive)

Qu. Try the compound c1ccc(CCNCc2ccco2)nc1
Ans. 1.92% (inactive)

Qu. Same again, this time with CC(C)(C)COS(=O)OCC(C)(C)C
Ans. 13.1% (inactive)

Qu. Would you kindly repeat that for Oc1ccccc1CNCc1ccccc1O ?
Ans. -8.46% (inactive)

Qu. Query OCCCSCCO next
Ans. -0.432% (inactive)

Qu. What do we get for Nc1c(S(=O)(=O)O)cc(Nc2cccc(S(N)(=O)=O)c2)c2c1C(=O)c1ccccc1C2=O ?
Ans. 2.62% (inactive)

Qu. Request: N=C(N)C(N=Nc1ccccc1)C(=N)N (configuration not stated)
Ans. 1.6% (inactive)

Qu. Okay, and CC[C@H](CN(C)C)C(=O)c1ccco1 ?
Ans. -1.8% (inactive)

Qu. Proceed to CC(=O)[C@@H](C)CCO[C@@]1(C)OCC[C@@H]1C
Ans. 14.8% (inactive)

Qu. Try this compound next: S=C1NCN2CCN(CC2)CNC(=S)C(=S)NCN2CCN(CC2)CNC1=S
Ans. 3.07% (inactive)

Qu. How about this compound: c1ccc(SC(Sc2ccccc2)c2ccc3c(c2)OCO3)cc1
Ans. -12% (inactive)

Qu. Okay, and C[C@@H]1CCCC(CC(=O)O)(CC(=O)O)C1 ?
Ans. 6.41% (inactive)

Qu. Check CN(C)CCC[C@@H]1c2ccccc2Oc2ccc(C(F)(F)F)cc21 too.
Ans. 4.88% (inactive)

Qu. Now this one: O=C(O)c1ccc(CNCc2ccccc2)cc1
Ans. 15.5% (inactive)

Qu. Please give the result for NC(N)=N/N=C(\c1ccc(Cl)cc1)C1CC1 too.
Ans. -1.61% (inactive)

Qu. # iterate: NC(N)=N/N=C\c1ccc(C2CCNCC2)cc1
Ans. 0.317% (inactive)

Qu. Moving on to the next compound: CN(C)c1ccc(-c2cc(NCc3ccccc3)ncn2)cc1
Ans. -7.24% (inactive)

Qu. Cool, now NC(N)=NC(N)=Nc1ccccc1 (tested in a mixture with another compound)
Ans. 1.58% (inactive)

Qu. Another compound to look at: CN(CCO)Cc1ncccc1O
Ans. 12.9% (inactive)

Qu. Next compound: COC(=O)[C@]1(C)CCC(c2ccc(C)cc2)=C(CC(=O)O)C1
Ans. 2.79% (inactive)

Qu. Same question for N#Cc1c(NC(=O)C(F)(F)F)sc2c3c(=O)c4ccccc4c(=O)c=3oc3ccccc3c12 please.
Ans. 0.0272% (inactive)

Qu. Please do the same for O=C1c2cc([N+](=O)[O-])ccc2-c2ccc3c4ccc5c6c(ccc(c7ccc1c2c73)c64)C(=O)c1cc([N+](=O)[O-])ccc1-5 as well.
Ans. 9.03% (inactive)

Qu. Continue with CC1(C)[C@@H](CC(=O)O)CCC[C@@H]1CC(=O)O
Ans. 1.3% (inactive)

Qu. Another: CN(C)C(=O)c1ccc(-c2nc(Nc3ccc(F)cc3)c3ccccc3n2)cc1
Ans. -8.08% (inactive)

Qu. Also N[C@@](CC(=O)O)(Cc1ccccc1)C(=O)O ?
Ans. 6.06% (inactive)

Qu. Please answer likewise for Nc1nc(Cl)nc2c1ncn2[C@@H]1O[C@@H](CO)[C@@H](O)[C@H]1O
Ans. 7.39% [at 38 µM] (inactive)

Qu. Item: Cc1cc(C2(c3cc(C)c(O)c(C(=O)O)c3)OS(=O)(=O)c3ccccc32)cc(C(=O)O)c1O
Ans. 2.58% (inactive)

Qu. Query Nc1ccc(Cc2ccc(N)c(C(=O)O)c2)cc1C(=O)O next
Ans. 1.75% (inactive)

Qu. Follow-up item: CNC[C@@H](SC)c1ccc(O)c(O)c1
Ans. 21% (inactive)

Qu. Same thing, different compound: Cn1ncc2c(Nc3cccc(Cl)c3)nc(Nc3cccc(Cl)c3)nc21
Ans. 4.09% (inactive)

Qu. Now give it for O=C(O)CSCCc1ccccc1 too.
Ans. 16.8% (inactive)
